- Tested on: p-MAPK (T202/Y204) in A375 human melanoma cells, having a mutated B-RAF
- assay_procedure: p-MAPK (T202/Y204) ArrayScan assay
- Assay type: cell-based
- measurement_setup: A-375, A375 cells treated 1.5 or 2 hours, cytoplasmatic p-MAPK fluorescence intensity, read-out: Array Scan A375 IC50
reported_property: IC50 (nM)

compound: Cn1c(-c2ccnc(C#Cc3cccc(Cl)c3)n2)cc2c1CCNC2=O [compound 8]
endpoint_unit: nM
IC50: 930

P. Nc1ncc(C#Cc2cccc(O)c2)c(-c2cc3c(n2CCF)CCNC3=O)n1 [compound 3]
Q. Cc1csc(C(=O)Nc2nccc(-c3cc4c(n3C)CCNC4=O)n2)c1 [compound 14]
Could you point out whether the larger IC50 belongs to P or to Q ? Response format: the label of the selected entry.
Q
